Values from the RNAGym collection of RNA variant scans (doi:10.1126/science.aae0568)

B1: tRNA (parent)
chain: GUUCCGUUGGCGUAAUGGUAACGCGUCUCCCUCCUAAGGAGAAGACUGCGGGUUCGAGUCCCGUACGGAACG

variants of: B1; test: yeast fitness relative to wild type (ratio to wild type); higher = fitter; tRNA-Arg(CCU), competitive growth, 37 C, YPD
Variants at the floor of the assay were thinned out.
Readout Name: yeast fitness
One number for each entry.

Use the examples below as a reference point.
mutation_code="U28G G58C" experimental_value=0.771
mutation_code="C5G C55G" experimental_value=0.685
mutation_code="C46G U54C A69C" experimental_value=0.601
mutation_code="A37G G51C" experimental_value=0.601
mutation_code="U16G C29U C31A C46U" experimental_value=0.716

Okay, here is my list. What is yeast fitness for each of these?
1. C4A G17A C24G G63C
2. C5A C60G C61G

Marked response:
[0.64, 0.544]
